growth inhibition for assorted compounds
# test: NCI Yeast Anticancer Drug Screen. Data for the bub3 strain (AID 167)
# conditionNotes: S. cerevisiae bub3 mutant strain, at 50.0 µM, hits give high values
The panel holds about 79,000 compounds, 15% with a hit somewhere; the sample as a whole holds those more often.
# output: bare number, implied unit %

C1COC2(C1)CCCO2: 23.2
O=C(O)C1Nc2ccccc2NC1=O (configuration not stated): -4.35
Cc1cccc(C(=O)O)c1-c1c(C)cccc1C(=O)O: 0.8
COc1cnc2cc(C(=O)O)c3ccccc3c2c1: -1.15
CCCC(C(=O)O)C(O)(CC(=O)O)C(=O)O (configuration not stated): 7.85

Req: For the compound shown here, COc1cccc(C(=O)NCCNCCNC(=O)c2cccc(OC)c2OC)c1OC , give the reported growth inhibition.
Resp: -1.75

Req: For the compound shown here, N#CC(C(=O)CCCC(=O)Nc1ccccc1[N+](=O)[O-])c1ccc(Cl)cc1Cl (configuration not stated) , give the reported growth inhibition.
Resp: 0.65

Req: For the compound shown here, CC(=O)[O][Ga]([Cl])[O]C(C)=O , give the reported growth inhibition.
Resp: 30.3

Req: For the compound shown here, COc1ccc2c3c([nH]c2c1)[C@H]1C[C@H]2[C@H](C[C@@H](O)[C@H](OC)[C@H]2C(=O)O)CN1CC3 , give the reported growth inhibition.
Resp: 23.6

Req: For the compound shown here, CN(C)c1ccn(C2OC(CO)C(O)C2SC(C)(C)C)c(=O)n1 (configuration not stated) , give the reported growth inhibition.
Resp: -1.25

Req: For the compound shown here, BrCCCOc1ccccc1Br , give the reported growth inhibition.
Resp: 4.2

Req: For the compound shown here, Cc1nc2nc(NCCCN(C)C)nc(NCCCN(C)C)c2nc1C , give the reported growth inhibition.
Resp: 21.4

---

# test: NCI Yeast Anticancer Drug Screen. Data for the sgs1 mgt1 strain (AID 161);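 further: 0% = growth of cultures given vehicle only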
# conditionNotes: S. cerevisiae sgs1 mgt1 strain, at 50.0 µM, hits give high values
Compounds without any hit were thinned out: in the full panel of roughly 79,000, 15% have a hit.
reportedMetric: growth inhibition (%)
# output: bare number, implied unit %

Check out these entries, answers already filled in.
COC1=CC(=O)C(C2OC(=O)C(Cl)=C2Cl)=CC1=O (stereo not given): -2.45
O=C1c2cc(Cl)ccc2-n2c(noc2=O)C2CSCN12 (stereo not given): -21
O=C(O)CNC(=O)c1ccc2cc(C(=O)N3CC(CCl)c4ccc([N+](=O)[O-])cc43)[nH]c2c1 (stereo not given): -3.95
O=C(COc1ccccc1)Nc1ccc(C(=O)O)cc1: -3.35

Now consider the entry below.
Req: For the molecule shown here, CCCCCC(=O)C(C)(c1nc2nnc(NC(=O)Nc3ccc(Cl)cc3)n2[nH]c1=O)c1nc2nnc(NC(=O)Nc3ccc(Cl)cc3)n2[nH]c1=O , give the reported growth inhibition.
Resp: -24.3

---

# test: NCI Yeast Anticancer Drug Screen. Data for the mec2-1 strain (AID 157)
# conditionNotes: S. cerevisiae mec2-1 strain, at 50.0 µM, hits give high values
# Method: Growth inhibition of yeast strains with defined genetic alterations is measured as a screen for potential anti-cancer activity. Selected strains with alterations in DNA damage repair or cell cycle control were exposed to compounds and growth inhibition was measured relative to vehicle treated controls. The strain used in this assay is mec2-1
The panel holds about 79,000 compounds, 15% with a hit somewhere; the sample as a whole holds those more often.
growth inhibition for assorted molecules
# output: bare number, implied unit %

CN1CCN(C(=S)C(O)(c2ccccc2)c2ccccc2)CC1: -1.85

Req: For the molecule shown here, Fc1cccc(CSc2cnnc(SCc3cccc(F)c3)c2SCc2cccc(F)c2)c1 , give the reported growth inhibition.
Resp: -7.1

Req: For the molecule shown here, Cc1ccc(S(=O)(=O)OCC(c2ccc(Cl)cc2)c2ccccc2Cl)cc1 (stereo not drawn) , give the reported growth inhibition.
Resp: 1.9

Req: For the molecule shown here, CCN(CC)CCOc1c(C)cccc1C , give the reported growth inhibition.
Resp: 3.45

Req: For the molecule shown here, NC(N)=NCCCC(O)C(=O)O (stereo not drawn) , give the reported growth inhibition.
Resp: -11.8

Req: For the molecule shown here, CCCC12C=C(OC)C(=O)C=C1OC(c1cc(OC)c(OC)c(OC)c1)C2C (stereo not drawn) , give the reported growth inhibition.
Resp: -23.4

Req: For the molecule shown here, CO/N=C1\C(C)(C)C(C)(C)C(C)(C)C1(C)SS(=O)(=O)O (stereo not drawn) , give the reported growth inhibition.
Resp: 19.1
